target: T1, ICAM-1-Fcγ (ICAM-1 residues of 1-480 fused to the Fc of human IgG, R&D Systems) (human, UniProt P05362 28-480); assay: flow cytometry on yeast-displayed I domain, ICAM-1-Fcγ 10 µg/ml
T1 construct: range 1-480; Bought (R&D Systems); also called ICAM-1-Fcγ chimera; not shown: Fc of human IgG
T1 sequence (P05362 28-480 limits assumed, form in doubt): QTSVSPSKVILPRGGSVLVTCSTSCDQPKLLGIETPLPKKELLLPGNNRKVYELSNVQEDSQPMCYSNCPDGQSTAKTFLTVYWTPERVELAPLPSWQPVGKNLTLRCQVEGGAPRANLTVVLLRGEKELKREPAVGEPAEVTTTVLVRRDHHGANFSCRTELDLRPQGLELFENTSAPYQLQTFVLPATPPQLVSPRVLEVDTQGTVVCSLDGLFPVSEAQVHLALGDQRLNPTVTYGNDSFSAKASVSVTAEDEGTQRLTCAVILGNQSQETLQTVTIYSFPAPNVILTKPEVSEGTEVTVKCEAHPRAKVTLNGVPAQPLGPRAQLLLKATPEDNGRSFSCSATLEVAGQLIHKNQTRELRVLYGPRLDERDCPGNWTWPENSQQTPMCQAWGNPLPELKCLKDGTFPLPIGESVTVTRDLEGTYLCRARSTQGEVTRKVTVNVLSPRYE
test_readout: ICAM-1 (% ASFI of HA)

Some binders with known ICAM-1 (% ASFI of HA) results, for comparison:
[
  {
    "binder": "αL I domain clone f11 (L295W), yeast-displayed (receptor, yeast surface display; not shown: Aga2, linker and hemagglutinin tag of pCTCON; c-myc tag) NVDLVFLFDGSMSLQPDEFQKILDFMKDVMKKLSNTSYQFAAVQFSTSYKTEFDFSDYVKWKDPDALLKHVKHMLLLTNTFGAINYVATEVFREELGARPDATKVLIIITDGEATDSGNIDAAKDIIRYIIGIGKHFQTKESQETLHKFASKPASEFVKILDTFEKWKDLFTELQKKIYVIEGTSKQDLT",
    "ICAM-1 (% ASFI of HA)": "81 % ASFI of HA"
  },
  {
    "binder": "αL I domain clone f9 (L295P), yeast-displayed (receptor, yeast surface display; not shown: Aga2, linker and hemagglutinin tag of pCTCON; c-myc tag) NVDLVFLFDGSMSLQPDEFQKILDFMKDVMKKLSNTSYQFAAVQFSTSYKTEFDFSDYVKWKDPDALLKHVKHMLLLTNTFGAINYVATEVFREELGARPDATKVLIIITDGEATDSGNIDAAKDIIRYIIGIGKHFQTKESQETLHKFASKPASEFVKILDTFEKPKDLFTELQKKIYVIEGTSKQDLT",
    "ICAM-1 (% ASFI of HA)": "5 % ASFI of HA"
  }
]

Lab note: next binder to report on.
Which ICAM-1 (% ASFI of HA) reading was recorded for the binder αL I domain clone m12 (I150T, G246V, F299L, I309T), yeast-displayed (receptor, yeast surface display; not shown: Aga2, linker and hemagglutinin tag of pCTCON; c-myc tag) NVDLVFLFDGSMSLQPDEFQKTLDFMKDVMKKLSNTSYQFAAVQFSTSYKTEFDFSDYVKWKDPDALLKHVKHMLLLTNTFGAINYVATEVFREELGARPDATKVLIIITDGEATDSVNIDAAKDIIRYIIGIGKHFQTKESQETLHKFASKPASEFVKILDTFEKLKDLLTELQKKIYVTEGTSKQDLT ?
27 % ASFI of HA
